# Tested on: A549
# measurement protocol: Cytotoxicity against human A549 cells by MTT assay
# Assay type: functional, cell-based
# experimental context: Homo sapiens, A549; read-out: IC50
A collection of compounds and their measured pIC50
Answer as the number alone; pIC50 is minus log10 of concentration in mol/L.

{"compound": "CCOC(=O)C1C(c2ccc(OC)cc2)c2c(c3ccccc3oc2=O)OC1(O)C(F)(F)F (racemic)", "pIC50": 4.08}
{"compound": "CCOC(=O)C1C(c2ccc(O)cc2)c2c(c3cc(F)ccc3oc2=O)OC1(O)C(F)(F)F (racemic)", "pIC50": 4.47}

Attention now turns to another entry.
Incoming: Read the entry CCOC(=O)C1C(c2ccc(OC)c(OC)c2)c2c(c3ccccc3oc2=O)OC1(O)C(F)(F)F (racemic) and write its reported pIC50.
Outgoing: 4.46

The reported measurements were obtained from ChEMBL document CHEMBL2202981.
